- TARGET_DESC: Cyclin-dependent kinase 4 (Homo sapiens) (UniProt P11802);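 note: enzyme tested as the CDK4–cyclin D complex, with the value reported as mean percent inhibition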
- Sequence (P11802 whole entry): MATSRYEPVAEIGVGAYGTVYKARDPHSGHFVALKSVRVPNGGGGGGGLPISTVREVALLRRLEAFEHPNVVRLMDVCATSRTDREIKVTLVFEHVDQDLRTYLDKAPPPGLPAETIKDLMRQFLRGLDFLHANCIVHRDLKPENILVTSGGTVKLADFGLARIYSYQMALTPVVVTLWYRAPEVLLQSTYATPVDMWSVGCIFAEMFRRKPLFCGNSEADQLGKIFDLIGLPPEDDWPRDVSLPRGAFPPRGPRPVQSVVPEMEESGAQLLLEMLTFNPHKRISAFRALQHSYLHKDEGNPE
- CONDITION_INFO: at 1 µM
ENDPOINT_LABEL: inhibition

### Prompt Assign inhibition to the following record: `Fc1cccc(COc2ccc(Nc3ncnc4sc(-c5cccs5)cc34)cc2Cl)c1`
### Response 2.13%

### Prompt Assign inhibition to the following record: `COc1cc2ncn(-c3cc(O[C@H](C)c4ccccc4Cl)c(C(N)=O)s3)c2cc1OC`
### Response 3.26%

### Prompt Assign inhibition to the following record: `Cc1cc(O)cc(C)c1/C=C/c1cncc(-c2nn[nH]n2)c1`
### Response 0%

### Prompt Assign inhibition to the following record: `CCn1c(-c2nonc2N)nc2c(C#CC(C)(C)O)nc(CN3CCCC3)cc21`
### Response 2.5%

### Prompt Assign inhibition to the following record: `CCn1c(-c2nonc2N)nc2c(N3CCCC3)nccc21`
### Response 4.7%

### Prompt Assign inhibition to the following record: `Nc1ncnc2occ(-c3ccc(NC(=O)Nc4cccc(C(F)(F)F)c4)cc3)c12`
### Response 6.6%

### Prompt Assign inhibition to the following record: `CS(=O)(=O)CCN(CC#N)Cc1ccc(-c2ccc3ncnc(Nc4ccc(OCc5cccc(F)c5)c(Cl)c4)c3c2)o1`
### Response -1.43%

### Prompt Assign inhibition to the following record: `CC(C)=Cc1cccc2c1/C(=N/Nc1ccc(S(N)(=O)=O)cc1)C(=O)N2`
### Response 68.9%

### Prompt Assign inhibition to the following record: `CCc1cccc(NC(=O)Nc2ccc(Oc3ccc4nc(NC(=O)OC)[nH]c4c3)cc2)c1`
### Response 1.5%

### Prompt Assign inhibition to the following record: `CCn1c(-c2nonc2N)nc2cnc(Oc3cccc(NC(=O)c4ccc(OCCN5CCOCC5)cc4)c3)cc21`
### Response 2.38%

### Prompt Assign inhibition to the following record: `NC(=O)c1ccc(-c2nc(-c3ccccn3)c(-c3ccc4c(c3)OCO4)[nH]2)cc1`
### Response 1.94%

----------
- TARGET_DESC: Mitogen-activated protein kinase kinase kinase kinase 2 (Homo sapiens);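 note: reported value is a mean of MAP4K2 inhibition at 1 µM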
- Sequence (whole entry): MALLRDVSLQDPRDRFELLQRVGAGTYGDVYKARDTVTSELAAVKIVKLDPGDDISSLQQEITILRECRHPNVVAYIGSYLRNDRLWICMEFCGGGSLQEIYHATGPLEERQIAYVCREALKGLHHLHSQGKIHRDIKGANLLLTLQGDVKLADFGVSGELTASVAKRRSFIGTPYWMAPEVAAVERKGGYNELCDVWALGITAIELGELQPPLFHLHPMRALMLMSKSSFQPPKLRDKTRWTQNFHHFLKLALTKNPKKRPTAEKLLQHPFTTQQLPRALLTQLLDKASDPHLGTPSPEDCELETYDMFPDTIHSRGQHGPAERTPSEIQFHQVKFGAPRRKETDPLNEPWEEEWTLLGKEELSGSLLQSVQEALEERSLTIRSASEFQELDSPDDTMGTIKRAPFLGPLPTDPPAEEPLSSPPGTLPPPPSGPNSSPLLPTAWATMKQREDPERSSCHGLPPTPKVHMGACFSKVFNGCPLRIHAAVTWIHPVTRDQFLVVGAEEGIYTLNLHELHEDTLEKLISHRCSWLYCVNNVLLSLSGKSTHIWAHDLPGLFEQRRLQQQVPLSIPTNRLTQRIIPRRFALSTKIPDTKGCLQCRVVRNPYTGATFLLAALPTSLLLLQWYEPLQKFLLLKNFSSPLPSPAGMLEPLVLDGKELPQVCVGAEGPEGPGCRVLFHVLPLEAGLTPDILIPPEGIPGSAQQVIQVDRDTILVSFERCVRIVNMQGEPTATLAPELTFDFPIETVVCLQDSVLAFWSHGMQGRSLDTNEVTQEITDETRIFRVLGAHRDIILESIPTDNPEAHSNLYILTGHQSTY
- CONDITION_INFO: at 1 µM
ENDPOINT_LABEL: inhibition (%)
API: value field is a number in %; no unit string.

### Prompt Assign inhibition to the following record: `CCc1cccc(NC(=O)Nc2ccc(Oc3ccc4nc(NC(=O)OC)[nH]c4c3)cc2)c1`
### Response 5.21

### Prompt Assign inhibition to the following record: `COc1cc2ncn(-c3cc(OCc4ccccc4Cl)c(C(N)=O)s3)c2cc1OC`
### Response 30.8

### Prompt Assign inhibition to the following record: `Nc1ncnc2occ(-c3ccc(NC(=O)Nc4cc(C(F)(F)F)cc(C(F)(F)F)c4)cc3)c12`
### Response 48.9

### Prompt Assign inhibition to the following record: `O=C1NC(=O)C(c2ccc(Cl)cc2)=C1Nc1ccc(Cl)c(C(=O)O)c1`
### Response 2.85

### Prompt Assign inhibition to the following record: `O=C1NC(=O)C(N2CCc3ccccc32)=C1c1ccc(Cl)cc1`
### Response 6.3
